biological target: human V1a receptor (Homo sapiens); construct: expressed in transfected cells; host or cells: CHO K1 (Chinese hamster ovary), also stably transfected with a modified aequorin; test: Cellular in vitro assay for vasopressin receptor activity, V1a receptor cell line (aequorin luminescence); type: cell-based; settings: selectivity ratio of the IC50 values hV2/hV1a
Cut-off 200 on ratio IC50 hV2/hV1a, inclusive. At or above means t; below means f.

Take a look at these entries with their results.
>  <Molecule>
CC(C)(O)CNC(=O)c1nc(Cn2nc(-c3ccc(Cl)cc3)n(C[C@H](O)C(F)(F)F)c2=O)nn1-c1ncccc1C(F)(F)F

>  <Assigned category>
f

$$$$
>  <Molecule>
NNC(=O)c1nc(Cn2nc(-c3ccc(Cl)cc3)n(C[C@H](O)C(F)(F)F)c2=O)nn1-c1ncccc1OC(F)(F)F

>  <Assigned category>
f

$$$$
>  <Molecule>
O=C(NC1CC1)c1nc(Cn2nc(-c3ccc(Cl)cc3)n(C[C@H](O)C(F)(F)F)c2=O)nn1-c1ccccc1Cl

>  <Assigned category>
f

$$$$
>  <Molecule>
O=C(c1nc(Cn2nc(-c3ccc(Cl)cc3)n(C[C@H](O)C(F)(F)F)c2=O)nn1CCC(F)(F)F)N1CCNC(C(F)(F)F)C1 (mixture of isomers)

>  <Assigned category>
f

$$$$

Quick check: does CC(C)(N)CNC(=O)c1nc(Cn2nc(-c3ccc(Cl)cc3)n(C[C@H](O)C(F)(F)F)c2=O)nn1-c1ncccc1OC(F)(F)F have ratio IC50 hV2/hV1a greater than or equal to 200? t

----------
Readings of pIC50 for the listed compounds
biological target: human V1a receptor (Homo sapiens, UniProt P37288); assay: Cellular in vitro assay for vasopressin receptor activity, V1a receptor cell line (aequorin luminescence); conditions: CHO cell line transfected with human V1a receptor; [Arg8]-vasopressin at EC50 concentration; read-out: IC50 hV1a
Sequence (P37288 whole entry): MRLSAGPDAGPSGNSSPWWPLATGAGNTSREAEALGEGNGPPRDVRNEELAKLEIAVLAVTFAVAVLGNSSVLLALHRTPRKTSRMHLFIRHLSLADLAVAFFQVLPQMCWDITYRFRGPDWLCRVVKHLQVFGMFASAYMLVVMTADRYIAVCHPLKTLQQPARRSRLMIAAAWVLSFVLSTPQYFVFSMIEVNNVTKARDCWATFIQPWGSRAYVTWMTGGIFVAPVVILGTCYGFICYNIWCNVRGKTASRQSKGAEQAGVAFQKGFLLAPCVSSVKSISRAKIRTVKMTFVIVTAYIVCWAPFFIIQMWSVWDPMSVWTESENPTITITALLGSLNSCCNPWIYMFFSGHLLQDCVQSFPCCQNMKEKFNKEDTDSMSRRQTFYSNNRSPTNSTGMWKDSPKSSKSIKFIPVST
Formally, pIC50 is defined as -log10 of the concentration c, with c in mol/L.

Take a look at these entries with their results.
>  <Compound>
CC(C)(O)CNC(=O)c1nc(Cn2nc(-c3ccc(Cl)cc3)n(C[C@H](O)C(F)(F)F)c2=O)nn1-c1cccnc1Cl

>  <pIC50>
7.89

$$$$
>  <Compound>
O=C(NCC(F)(F)F)c1nc(Cn2nc(-c3ccc(Cl)cc3)n(C[C@H](O)C(F)(F)F)c2=O)nn1-c1ncccc1C(F)(F)F

>  <pIC50>
9.04

$$$$
>  <Compound>
CC(C)(C)OC(=O)N1CCN(C(=O)c2nc(Cn3nc(-c4ccc(Cl)cc4)n(C[C@H](O)C(F)(F)F)c3=O)nn2-c2cccc(F)c2)CC1

>  <pIC50>
6.88

$$$$
>  <Compound>
CC(C)(C)NC(=O)c1nc(Cn2nc(-c3ccc(Cl)cc3)n(C[C@H](O)C(F)(F)F)c2=O)nn1-c1ncccc1C(F)(F)F

>  <pIC50>
8.88

$$$$
>  <Compound>
O=C(NC1CC1)c1nc(Cn2nc(-c3ccc(Cl)cc3)n(C[C@H](O)C(F)(F)F)c2=O)nn1-c1ccccc1Cl

>  <pIC50>
8.88

$$$$
>  <Compound>
O=C(c1nc(Cn2nc(-c3ccc(Cl)cc3)n(C[C@H](O)C(F)(F)F)c2=O)nn1-c1ccccc1Cl)N1CCOCC1

>  <pIC50>
9.00

$$$$

GET /value?item= CC(C)(N)CNC(=O)c1nc(Cn2nc(-c3ccc(Cl)cc3)n(C[C@H](O)C(F)(F)F)c2=O)nn1-c1cnccc1Cl &field=pIC50 returns 9.31

GET /value?item= O=C(c1nc(Cn2nc(-c3ccc(Cl)cc3)n(C[C@H](O)C(F)(F)F)c2=O)nn1-c1cccc(Cl)c1)N1CCOCC1 &field=pIC50 returns 7.74

GET /value?item= O=CN1CCC(NC(=O)c2nc(Cn3nc(-c4ccc(Cl)cc4)n(C[C@H](O)C(F)(F)F)c3=O)nn2-c2cccnc2Cl)C1 (mixture of isomers) &field=pIC50 returns 6.97
